target.or.test.system: human CGRP receptor (CLR/RAMP1), transiently transfected in Cos 7 cells (human, UniProt Q16602 23-461; O60894 27-148)
Sequence (Q16602 23-461, chain 1 of 2): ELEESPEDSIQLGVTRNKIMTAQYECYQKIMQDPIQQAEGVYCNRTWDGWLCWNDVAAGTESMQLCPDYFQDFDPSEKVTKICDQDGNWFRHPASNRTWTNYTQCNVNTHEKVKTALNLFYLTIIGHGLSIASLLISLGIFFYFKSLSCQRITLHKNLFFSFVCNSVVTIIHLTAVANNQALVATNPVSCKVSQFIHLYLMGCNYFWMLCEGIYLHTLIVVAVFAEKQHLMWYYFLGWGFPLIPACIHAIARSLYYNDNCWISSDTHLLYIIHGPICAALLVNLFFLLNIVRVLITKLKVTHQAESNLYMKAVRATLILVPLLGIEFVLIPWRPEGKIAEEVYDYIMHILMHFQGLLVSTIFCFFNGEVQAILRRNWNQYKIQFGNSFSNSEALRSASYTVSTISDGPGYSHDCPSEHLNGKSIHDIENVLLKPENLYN
Sequence (O60894 27-148, chain 2 of 2): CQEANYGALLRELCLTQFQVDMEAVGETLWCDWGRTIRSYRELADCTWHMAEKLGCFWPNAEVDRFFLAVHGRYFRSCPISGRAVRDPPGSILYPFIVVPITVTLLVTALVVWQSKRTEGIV
protocol.summary: cell-based or functional assay
Where no end group is shown, it is not given here. The star is where a group is joined. Ethyl(2-palmitoyloxy) = CCCCCCCCCCCCCCCC(=O)OCC*
outcome.measure: Selectivity (fold-difference CGRP vs. AMY1) (fold)
API: value field is a number in fold; no unit string.

binder	value.units	recorded.number
CVTHRLAGLLSRSGGVVKNNFVPTNVGSKAF-NH2 [CGRP7-37 B]	fold	15
VTHRLAGLLSRSGGVVC(Ethyl(2-palmitoyloxy))NNFVPTNVGSKAF-NH2 [K24C(S-Pam) CGRP8-37 A5]	fold	-4

Consider the additional binder presented here.
// C(Ethyl(2-palmitoyloxy))THRLAGLLSRSGGVVKNNFVPTNVGSKAF-NH2 [V8C(S-Pam) CGRP8-37 A4] : Selectivity (fold-difference CGRP vs. AMY1) value = 12
